- measured_target: NMT1 enzyme (Homo sapiens, UniProt P30419)
- Sequence (P30419 1-496): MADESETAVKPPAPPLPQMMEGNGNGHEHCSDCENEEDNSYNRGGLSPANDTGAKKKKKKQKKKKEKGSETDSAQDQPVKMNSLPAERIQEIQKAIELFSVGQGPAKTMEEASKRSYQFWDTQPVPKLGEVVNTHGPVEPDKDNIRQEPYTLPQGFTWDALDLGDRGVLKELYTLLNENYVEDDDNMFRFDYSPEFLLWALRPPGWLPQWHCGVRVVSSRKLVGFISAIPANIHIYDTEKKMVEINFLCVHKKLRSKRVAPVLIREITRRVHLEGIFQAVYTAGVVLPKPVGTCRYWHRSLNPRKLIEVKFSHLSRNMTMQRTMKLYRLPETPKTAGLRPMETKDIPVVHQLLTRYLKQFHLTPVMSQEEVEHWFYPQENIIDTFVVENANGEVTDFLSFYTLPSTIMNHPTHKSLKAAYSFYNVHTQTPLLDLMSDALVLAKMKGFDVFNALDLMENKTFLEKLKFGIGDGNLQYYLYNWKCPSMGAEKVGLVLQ
- test: Inhibitory activity on NMT1 enzyme catalysis (fluorescence intensity assay)
- Format: biochemical
- stated_conditions: 6 nM NMT1 enzyme, 1.25 µM myristoyl-CoA, 20 µM HSPP60 SRC peptide, 45 minutes at 25 °C; read-out: NMT1 (IC50)
pIC50: −log10 of the molar value.
Each entry below carries its reported pIC50.

# chemical_string, pIC50
rows = [
    ("Cc1nn(C)c(C)c1NS(=O)(=O)c1c(Cl)cc(-c2ccn3nc4c(c3c2)CNCC4)cc1Cl", 8.42),
    ("Cc1c(NS(=O)(=O)c2c(Cl)cc(-c3ccc4sc5c(c4c3)CNCC5)cc2Cl)c(CC(F)(F)F)nn1C", 8.25),
    ("Cc1nn(C)c(C)c1NS(=O)(=O)c1ccc(-c2ccc3oc4c(c3c2)CNCC4)cc1", 8.42),
    ("Cc1c(NS(=O)(=O)c2ccc(-c3ccc4sc5c(c4c3)CNCC5)cc2Cl)c(CC(F)F)nn1C", 8.71),
    ("Cc1c(NS(=O)(=O)c2c(Cl)cc(-c3ccc4sc5c(c4c3)CCNC5)cc2Cl)c(CCF)nn1C", 8.68),
    ("Cc1nn(C)c(C)c1NS(=O)(=O)c1c(Cl)cc(-c2ccc3sc4c(c3c2)CNCC4)cc1Cl", 8.46),
    ("Cc1c(NS(=O)(=O)c2c(Cl)cc(-c3ccc4oc5c(c4c3)CNCC5)cc2Cl)c(CCF)nn1C", 8.71),
    ("Cc1nn(C)c(C)c1NS(=O)(=O)c1c(Cl)cc(N2CCn3nc4c(c3C2)CNCC4)cc1Cl", 8.42),
    ("Cc1c(NS(=O)(=O)c2c(Cl)cc(-c3ccc4sc5c(c4c3)CCNC5)cc2Cl)c(CC(F)F)nn1C", 8.43),
    ("Cc1c(NS(=O)(=O)c2ccc(-c3ccc4sc5c(c4c3)CNCC5)cc2Cl)c(CC2CC2)nn1C", 8.68),
    ("Cc1c(NS(=O)(=O)c2ccc(-c3ccc4oc5c(c4c3)CNCC5)cc2Cl)c(CCF)nn1C", 8.40),
    ("CCc1nn(C)c(C)c1NS(=O)(=O)c1ccc(-c2ccc3oc4c(c3c2)CNCC4)cc1", 8.53),
    ("Cc1c(NS(=O)(=O)c2ccc(-c3ccc4oc5c(c4c3)CNCC5)cc2Cl)c(CC(C)C)nn1C", 8.51),
    ("Cc1c(NS(=O)(=O)c2ccc(-c3ccc4sc5c(c4c3)CNCC5)cc2)c(CC(F)F)nn1C", 8.61),
    ("Cc1c(NS(=O)(=O)c2ccc(-c3ccc4oc5c(c4c3)CNCC5)cc2)c(CC(C)C)nn1C", 8.42),
]
